- Tested system: UniProt Q02769
- Sequence (Q02769 whole entry): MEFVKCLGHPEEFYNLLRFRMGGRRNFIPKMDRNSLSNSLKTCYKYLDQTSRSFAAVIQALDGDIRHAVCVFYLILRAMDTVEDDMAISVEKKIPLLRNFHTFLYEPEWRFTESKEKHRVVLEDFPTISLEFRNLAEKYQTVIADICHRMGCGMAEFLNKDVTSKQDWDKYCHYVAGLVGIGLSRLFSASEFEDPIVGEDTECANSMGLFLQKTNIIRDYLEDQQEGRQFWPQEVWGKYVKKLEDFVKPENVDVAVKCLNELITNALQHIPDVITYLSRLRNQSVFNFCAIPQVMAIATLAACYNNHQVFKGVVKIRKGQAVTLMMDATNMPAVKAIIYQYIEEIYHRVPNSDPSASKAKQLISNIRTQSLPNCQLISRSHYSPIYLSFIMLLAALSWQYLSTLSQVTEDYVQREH
- Experiment notes: Tested for inhibition against squalene synthase enzyme in rat liver
// assign 1 if IC50 falls strictly below 500 pM, else 0 (ties count as 0)

- Molecule: "C=C(CCC12OC(C(=O)O)C(O)(C(=O)O)C(C(=O)O)(O1)[C@H](OC(=O)CCCCCCCCCCc1ccccc1)[C@H]2O)[C@@H](OC(C)=O)[C@H](C)Cc1ccccc1 (some centres not stated)"
  Group: 1
- Molecule: "C=C(CCC12OC(C(=O)O)C(O)(C(=O)O)C(C(=O)O)(O1)[C@H](OC(=O)CCCCCCCCCCCCCCC)[C@H]2O)[C@@H](OC(C)=O)[C@H](C)Cc1ccccc1 (some centres not stated)"
  Group: 0
- Molecule: "C=C(CCC12OC(C(=O)O)C(O)(C(=O)O)C(C(=O)O)(O1)[C@H](OC(=O)CCCOC)[C@H]2O)[C@@H](OC(C)=O)[C@H](C)Cc1ccccc1 (some centres not stated)"
  Group: 0
- Molecule: "C=C(CCC12OC(C(=O)O)C(O)(C(=O)O)C(C(=O)O)(O1)[C@H](OC(=O)/C=C/[C@@H](C)C[C@@H](C)CC)[C@H]2O)[C@@H](OC(=O)CC)[C@H](C)Cc1ccccc1 (some centres not stated)"
  Group: 1
- Molecule: "C=C(CCC12OC(C(=O)O)C(OCCCCCCCCCCCCCC)(C(=O)O)C(C(=O)O)(O1)[C@H](O)[C@H]2O)[C@@H](OC(C)=O)[C@H](C)Cc1ccccc1 (some centres not stated)"
  Group: 0
- Molecule: "C=C(CCC12OC(C(=O)O)C(O)(C(=O)O)C(C(=O)O)(O1)[C@H](OC(=O)CCC)[C@H]2O)[C@@H](OC(=O)CC)[C@H](C)Cc1ccccc1 (some centres not stated)"
  Group: 0
- Molecule: "C=C(CCC12OC(C(=O)O)C(OCCCCCCCCCCCC)(C(=O)O)C(C(=O)O)(O1)[C@H](O)[C@H]2O)[C@@H](OC(C)=O)[C@H](C)Cc1ccccc1 (some centres not stated)"
  Group: 0
- Molecule: "C=C(CCC12OC(C(=O)O)C(O)(C(=O)O)C(C(=O)O)(O1)[C@H](OC(=O)OCCC[C@@H](C)C[C@@H](C)CC)[C@H]2O)[C@@H](OC(C)=O)[C@H](C)Cc1ccccc1 (some centres not stated)"
  Group: 1
- Molecule: "CC(/C=C/CCC(=O)O[C@@H]1[C@@H](O)C2(CCCCC(C)Cc3ccccc3)OC(C(=O)O)C(O)(C(=O)O)C1(C(=O)O)O2)CCCc1ccccc1 (some centres not stated)"
  Group: 1
- Molecule: "C=C(CCC12OC(C(=O)O)C(O)(C(=O)O)C(C(=O)O)(O1)[C@H](OCCCCCCCCCCCOc1ccccc1)[C@H]2O)[C@@H](OC(C)=O)[C@H](C)Cc1ccccc1 (some centres not stated)"
  Group: 1
- Molecule: "C=C(CCC12OC(C(=O)O)C(O)(C(=O)O)C(C(=O)O)(O1)[C@H](OC(=O)NCC)[C@H]2O)[C@@H](OC(C)=O)[C@H](C)Cc1ccccc1 (some centres not stated)"
  Group: 0
- Molecule: "C=C(CCC12OC(C(=O)O)C(OCCCCCCCCOc3ccccc3)(C(=O)O)C(C(=O)O)(O1)[C@H](OCCCCCCCCOc1ccccc1)[C@H]2O)[C@@H](OC(C)=O)[C@H](C)Cc1ccccc1 (some centres not stated)"
  Group: 0
